Target: T1, CRH (NT Biotin) (human and mouse, not fully specified; biotin at the N-terminus)
T1 peptide: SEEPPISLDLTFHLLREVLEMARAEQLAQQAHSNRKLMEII
Experiment: ELISA, biotin peptide on streptavidin plate
Procedure: Streptavidin (Thermo, Cat: 21125) was diluted in PBS to a concentration of 2 μg/ml. 100 μl of diluted streptavidin was added per well to ELISA microplates, and the plates were incubated overnight at 4° C. […] 100 μL of ELISA stopping solution (Solarbio, Cat #: C1058) was added to terminate the reaction, and the optical density at 450 nm (OD450 nm) was determined by an ELISA plate reader (Molecular Devices, Spectra max 384 plus).
// reported EC50 for each item listed

binder | EC50 / nM
PR302334-26 (antibody, human IgG1, kappa, V domains shown, Humanized variant of PR302334) VH: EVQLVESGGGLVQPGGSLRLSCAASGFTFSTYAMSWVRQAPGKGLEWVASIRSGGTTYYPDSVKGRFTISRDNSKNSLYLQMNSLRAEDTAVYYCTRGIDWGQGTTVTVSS VL: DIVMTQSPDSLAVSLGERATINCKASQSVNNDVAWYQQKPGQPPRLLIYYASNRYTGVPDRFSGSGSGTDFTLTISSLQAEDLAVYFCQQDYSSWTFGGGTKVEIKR | 0.029
PR303394 (antibody, human IgG1, kappa, V domains shown, also called analog of CTRND05) VH: EVQLQQSGPELVKPGVSMKISCKASGYSFTDSTMNWVKQSHGKNLEWIGLIHPDNGGTIYNQKFKGKATLTVHKSSSTAYMELLSLTSEDSAVYYCANGFAYWGQGTLVTVSA VL: DVVMTQTPLSLPVSLGDQASISCRSSQSLLHSNGNTYLHWYLQKPGQSPELLIYKVSNRFSGVPDRFSGSGSGTDFTLKISRVEAEDLGVYFCSQSTHVPLTFGAGTKLELKR | 0.028
PR302064 (antibody, human IgG1, kappa, V domains shown, Humanized variant of PR301777) VH: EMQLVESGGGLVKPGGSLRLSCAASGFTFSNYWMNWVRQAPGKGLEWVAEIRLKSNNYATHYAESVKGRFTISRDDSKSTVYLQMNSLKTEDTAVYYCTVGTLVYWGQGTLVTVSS VL: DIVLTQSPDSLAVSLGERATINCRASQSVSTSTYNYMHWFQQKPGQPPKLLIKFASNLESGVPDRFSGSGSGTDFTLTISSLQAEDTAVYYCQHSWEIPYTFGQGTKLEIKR | 0.03
